- Tested on: SNB-75
- protocol.details: Cytotoxicity against human SNB75 cells assessed as cellular growth at 10 uM by SRB assay
- Format: functional
readout.label: Activity
For clarity, give the value followed by its unit.

N#Cc1ccc(-n2nnc3ccccc32)cc1C#N: 120.55%
O=c1/c(=C/c2ccccc2)sc2nc(-c3ccc(Cl)cc3Cl)nn12: 80.26%
O=S(=O)(Oc1ccc(-c2cnc3ccccc3n2)cc1)c1ccccc1: 108.13%
Nc1c(C(=O)Nc2ccccc2)sc2nc3c(cc12)C(=O)CCC3: 12.41%
Cc1ccc(CNC(=O)c2[nH]c3ccccc3c2Cl)cc1: 123.78%
Clc1cccc(-c2nc(-c3cccs3)no2)c1: 88.55%
CC1(C)CC(=O)c2cc3c(N)c(C(=O)Nc4ccccc4Cl)sc3nc2C1: 118.5%
CC1(C)CC(=O)c2cc3c(N)c(C(=O)Nc4ccc(F)cc4)sc3nc2C1: 114.82%

Exam item: For the compound shown here, `Cc1ccc(S(=O)(=O)NC2=NC(=O)/C(=C\c3ccccc3)S2)cc1` , give the reported Activity.
Marked response: 88.62%

Exam item: Consider next the compound `O=c1/c(=C/c2ccc(Cl)cc2Cl)sc2nc(-c3ccccc3)nn12` in the same way.
Marked response: 116.38%

Exam item: What about `Cc1cc(C)c(NC(=O)c2sc3nc4c(cc3c2N)C(=O)CCC4)c(C)c1` ?
Marked response: 0%

Exam item: Here is the next compound: `CC1(C)CCc2cc(-c3ccn(S(=O)(=O)c4ccc(Cl)cc4)n3)ccc2O1`
Marked response: 92.32%

Exam item: Item: `O=C(NCCc1ccccc1)c1[nH]c2ccccc2c1Cl`
Marked response: 79.43%

Exam item: Next compound up: `CC1(C)CCc2cc(-c3ccn(S(=O)(=O)c4ccccc4Cl)n3)ccc2O1`
Marked response: 99.11%

Exam item: Check `O=C(Nc1nc2ccccc2s1)c1ccc(F)cc1` too.
Marked response: 96.73%

Exam item: Also, `Cc1ccc(S(=O)(=O)Oc2ccc(-c3cnc4ccccc4n3)cc2)cc1` please.
Marked response: 117.79%
